Biological target: Lysine-specific demethylase 5B [1-755] (Homo sapiens)
Construct: 1-755
Sequence (Q9UGL1 whole entry): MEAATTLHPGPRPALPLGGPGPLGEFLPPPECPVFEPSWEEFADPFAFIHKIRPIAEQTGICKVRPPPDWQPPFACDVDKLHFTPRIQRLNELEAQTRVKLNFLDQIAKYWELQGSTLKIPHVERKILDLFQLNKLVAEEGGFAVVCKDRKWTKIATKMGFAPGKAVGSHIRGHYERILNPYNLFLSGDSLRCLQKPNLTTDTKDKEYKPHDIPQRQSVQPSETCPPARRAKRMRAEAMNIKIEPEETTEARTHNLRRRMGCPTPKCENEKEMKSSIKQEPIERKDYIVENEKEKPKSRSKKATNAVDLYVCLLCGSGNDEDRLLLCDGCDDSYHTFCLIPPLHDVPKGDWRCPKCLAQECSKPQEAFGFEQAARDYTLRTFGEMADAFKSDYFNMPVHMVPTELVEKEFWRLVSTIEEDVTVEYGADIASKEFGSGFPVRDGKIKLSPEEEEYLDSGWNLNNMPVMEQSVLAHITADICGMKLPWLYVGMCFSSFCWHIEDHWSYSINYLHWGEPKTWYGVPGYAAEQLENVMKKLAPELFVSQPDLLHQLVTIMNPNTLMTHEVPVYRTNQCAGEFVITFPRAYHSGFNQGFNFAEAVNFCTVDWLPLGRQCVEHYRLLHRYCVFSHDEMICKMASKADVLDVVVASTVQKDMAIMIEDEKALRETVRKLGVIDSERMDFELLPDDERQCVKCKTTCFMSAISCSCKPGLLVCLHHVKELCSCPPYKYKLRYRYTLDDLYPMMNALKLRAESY
Assay: Formaldehyde Dehydrogenase-Coupled Demethylase (FDH) Assay
Settings: 25 °C
Collected pIC50 values appear next to each entry.
On this scale, pIC50 is minus log10 of a concentration expressed in M (mol/L).

Examples from the recorded data:
| Molecule | Recorded Value |
| --- | --- |
| Cc1cc(Cl)ccc1COc1ccnn1-c1cc(C(=O)O)ccn1 [US9714230, 89] | 6.00 |
| CCOC(=O)c1ccnc(CNCC(=O)N(CC)CCN(C)C)c1 [KDOAM-21] | 4.51 |
| O=C(O)c1ccnc(-c2cc(C(=O)NCCc3ccccc3)ccn2)c1 | 5.26 |
| Cc1[nH]c2c(C#N)cnn2c(=O)c1C(C)C | 6.15 |

Ask: Need pIC50 of CCN(CCN(C)C)C(=O)CNCc1cc(C(=O)O)ccn1 [KDOAM-20] , thanks.
Reply: 5.68

Ask: Now the same for O=C(Cc1ccc(Cl)cc1)Nc1cnccc1C(=O)O
Reply: 5.68

Ask: Now the same for O=C(O)c1ccncc1Nc1nn(CCN2CCC(F)(F)CC2)c2ccc(F)cc12
Reply: 6.10

---

Collected IC50 values appear next to each entry.
Target: Lysine-specific demethylase 5D [1-760] (Homo sapiens, UniProt Q9BY66)
Construct: 1-760
Sequence (Q9BY66 1-760): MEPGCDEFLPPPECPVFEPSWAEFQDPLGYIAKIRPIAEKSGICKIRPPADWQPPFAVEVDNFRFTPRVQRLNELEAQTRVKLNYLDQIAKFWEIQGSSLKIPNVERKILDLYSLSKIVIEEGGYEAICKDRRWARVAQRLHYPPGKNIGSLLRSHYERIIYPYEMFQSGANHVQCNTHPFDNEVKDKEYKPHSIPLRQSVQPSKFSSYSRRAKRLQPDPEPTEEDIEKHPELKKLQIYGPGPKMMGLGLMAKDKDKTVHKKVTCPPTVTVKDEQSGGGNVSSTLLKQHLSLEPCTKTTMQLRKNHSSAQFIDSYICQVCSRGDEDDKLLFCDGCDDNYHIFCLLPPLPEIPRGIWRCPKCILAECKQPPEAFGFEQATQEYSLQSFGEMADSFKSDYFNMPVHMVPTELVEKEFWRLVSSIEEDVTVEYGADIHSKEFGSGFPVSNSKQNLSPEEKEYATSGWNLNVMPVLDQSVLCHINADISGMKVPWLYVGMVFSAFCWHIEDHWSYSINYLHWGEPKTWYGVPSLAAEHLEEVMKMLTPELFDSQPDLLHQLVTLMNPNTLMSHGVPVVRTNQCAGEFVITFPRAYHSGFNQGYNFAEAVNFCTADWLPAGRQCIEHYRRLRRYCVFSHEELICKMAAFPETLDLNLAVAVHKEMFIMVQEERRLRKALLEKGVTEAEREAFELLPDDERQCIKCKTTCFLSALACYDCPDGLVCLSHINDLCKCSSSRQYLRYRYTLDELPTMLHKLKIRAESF
Assay: Formaldehyde Dehydrogenase-Coupled Demethylase (FDH) Assay
Details: 25 °C
Form entry: value (µM) — number only.

Examples from the recorded data:
| Molecule | Unit | IC50 |
| --- | --- | --- |
| Cc1[nH]c2c(C#N)cnn2c(=O)c1C(C)C | µM | 6 |
| O=C(O)c1ccncc1Nc1nn(CCN2CCC(F)(F)CC2)c2ccc(F)cc12 | µM | 2.7 |

From here, focus on the item given below.
Ask: Given the entry CCOC(=O)c1ccnc(CNCC(=O)N(CC)CCN(C)C)c1 [KDOAM-21] , what IC50 was observed with Lysine-specific demethylase 5D [1-760] (Homo sapiens, UniProt Q9BY66)?
Reply: 290
